Reported values of IC50 for individual entries
tested on: CCK receptor (brain) (Cavia porcellus, UniProt H0VZC5)
Construct: The cerebral cortex is dissected and used as a receptor source; from tissue; host or cells: cerebral cortex of male Hartley guinea pig, membrane homogenate
Sequence (H0VZC5 1-426): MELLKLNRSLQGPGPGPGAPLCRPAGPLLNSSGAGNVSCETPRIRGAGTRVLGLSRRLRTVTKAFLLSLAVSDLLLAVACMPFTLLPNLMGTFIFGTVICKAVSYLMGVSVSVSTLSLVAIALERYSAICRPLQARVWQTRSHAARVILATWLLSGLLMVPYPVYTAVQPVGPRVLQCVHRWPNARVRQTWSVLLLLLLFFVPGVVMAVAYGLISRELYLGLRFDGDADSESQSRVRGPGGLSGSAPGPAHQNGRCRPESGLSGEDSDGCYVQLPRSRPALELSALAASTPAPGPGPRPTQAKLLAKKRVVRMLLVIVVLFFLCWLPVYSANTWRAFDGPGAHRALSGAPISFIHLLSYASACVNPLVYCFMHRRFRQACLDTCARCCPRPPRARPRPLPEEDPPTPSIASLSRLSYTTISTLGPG
experiment description: CCK receptor binding (brain) method
Parameters: species or system Hartley guinea pig
test conditions: guinea pig cerebral cortex, 25° C., 2 hours; read-out: ^125 I-CCK Brain IC50

For orientation, consider the following solved cases.
[
  {
    "compound": "CC(C)C[C@@H](NC(=O)OC(C)(C)C)C(=O)N1CC(C[C@@H]2NC(=O)c3ccccc3-n3c2nc2ccccc2c3=O)c2ccccc21 (single isomer, unassigned; isomer 2)",
    "result value": "> 100 µM"
  },
  {
    "compound": "O=C1N[C@@H](Cc2c[nH]c3ccccc23)C2Nc3ccccc3C(=O)N2c2ccccc21 (some centres unmarked) [Example 1, monohydrate]",
    "result value": "> 100 µM"
  },
  {
    "compound": "CC(C)C[C@@H](NC(=O)OC(C)(C)C)C(=O)N1CC(C[C@@H]2NC(=O)c3ccccc3N3C(=O)c4ccccc4NC23)c2ccccc21 (single isomer, unassigned; isomer 1)",
    "result value": "15 µM"
  }
]

Problem: Reported IC50, compound CC(C)C[C@H](NC(=O)OC(C)(C)C)C(=O)N1CC(C[C@@H]2NC(=O)c3ccccc3N3C(=O)c4ccccc4NC23)c2ccccc21 (some centres unmarked) [Example 5, hydrate] : ____
Solution: > 100 µM

Problem: # input compound: CC(C)C[C@H](NC(=O)OC(C)(C)C)C(=O)N1CC(C[C@@H]2NC(=O)c3ccccc3-n3c2nc2ccccc2c3=O)c2ccccc21 (some centres unmarked) [Example 4, hemihydrate] ; wanted: its IC50
Solution: > 100 µM

* * *

tested on: CCK receptor (pancreas) (Rattus norvegicus)
Construct: The whole pancreas of a male Sprague-Dawley rat; from tissue; host or cells: whole pancreas of male Sprague-Dawley rat, washed membrane homogenate
Sequence (P30551 whole entry): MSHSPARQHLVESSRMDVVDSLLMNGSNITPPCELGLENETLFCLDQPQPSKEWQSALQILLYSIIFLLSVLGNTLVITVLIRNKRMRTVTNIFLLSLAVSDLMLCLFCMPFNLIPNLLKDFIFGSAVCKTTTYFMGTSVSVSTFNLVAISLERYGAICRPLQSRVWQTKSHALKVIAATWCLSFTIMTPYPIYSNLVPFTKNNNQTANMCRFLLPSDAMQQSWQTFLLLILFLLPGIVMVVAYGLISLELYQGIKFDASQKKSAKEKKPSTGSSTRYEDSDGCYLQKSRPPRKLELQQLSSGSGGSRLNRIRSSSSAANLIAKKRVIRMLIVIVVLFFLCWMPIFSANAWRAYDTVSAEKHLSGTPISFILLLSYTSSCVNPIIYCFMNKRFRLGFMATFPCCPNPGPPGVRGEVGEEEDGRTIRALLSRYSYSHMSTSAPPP
experiment description: CCK receptor binding (pancreas) method
Design: species or system Sprague-Dawley rat
test conditions: rat pancreas membranes, 37° C., 30 minutes; read-out: I-CCK-8 Pancreas IC50
pIC50: −log10 of the molar value.
endpoint: pIC50

[
  {
    "molecule": "O=C1N[C@@H](Cc2c[nH]c3ccccc23)C2Nc3ccccc3C(=O)N2c2ccccc21 (some centres unmarked) [Example 1, monohydrate]",
    "tested on": "CCK receptor (pancreas) (Rattus norvegicus)",
    "endpoint": "pIC50",
    "result value": 4.92
  },
  {
    "molecule": "CC(C)C[C@H](NC(=O)OC(C)(C)C)C(=O)N1CC(C[C@@H]2NC(=O)c3ccccc3N3C(=O)c4ccccc4NC23)c2ccccc21 (some centres unmarked) [Example 5, hydrate]",
    "tested on": "CCK receptor (pancreas) (Rattus norvegicus)",
    "endpoint": "pIC50",
    "result value": 4.72
  }
]

(a) O=C1N[C@@H](CC2CNc3ccccc32)c2nc3ccccc3c(=O)n2-c2ccccc21 (some centres unmarked) [Example 2, hemihydrate]
(b) CC(C)C[C@@H](NC(=O)OC(C)(C)C)C(=O)N1CC(C[C@@H]2NC(=O)c3ccccc3-n3c2nc2ccccc2c3=O)c2ccccc21 (single isomer, unassigned; isomer 1) [Example 6]
Problem: Pick one: a or b . Which has the bigger pIC50 number? Refer to your chosen entry by its label in the reply.
Solution: b

* * *

tested on: CCK receptor (brain) (Cavia porcellus)
pIC50: −log10 of the molar value.
endpoint: pIC50

Before answering, review these 2 worked examples.
[
  {
    "compound": "CC(C)C[C@H](NC(=O)OCc1ccccc1)C(=O)n1cc(C[C@@H]2NC(=O)c3ccccc3-n3c2nc2ccccc2c3=O)c2ccccc21",
    "pIC50": "< 4.00"
  },
  {
    "compound": "CC(C)C[C@H](NC(=O)OC(C)(C)C)C(=O)n1cc(C[C@@H]2NC(=O)c3ccccc3-n3c2nc2ccccc2c3=O)c2ccccc21 [Example 3, sesquihydrate]",
    "pIC50": "< 4.00"
  }
]

Field: next compound
Problem: Please provide the recorded pIC50 for O=C1N[C@@H](CC2CNc3ccccc32)c2nc3ccccc3c(=O)n2-c2ccccc21 (stereo partly drawn) [Example 2, hemihydrate] , tested on CCK receptor (brain) (Cavia porcellus).
Solution: < 4.00
